TESTED_ON: AhR (Homo sapiens, UniProt P35869)
Construct: host or cells: human HepG2 cells
Sequence (P35869 11-848): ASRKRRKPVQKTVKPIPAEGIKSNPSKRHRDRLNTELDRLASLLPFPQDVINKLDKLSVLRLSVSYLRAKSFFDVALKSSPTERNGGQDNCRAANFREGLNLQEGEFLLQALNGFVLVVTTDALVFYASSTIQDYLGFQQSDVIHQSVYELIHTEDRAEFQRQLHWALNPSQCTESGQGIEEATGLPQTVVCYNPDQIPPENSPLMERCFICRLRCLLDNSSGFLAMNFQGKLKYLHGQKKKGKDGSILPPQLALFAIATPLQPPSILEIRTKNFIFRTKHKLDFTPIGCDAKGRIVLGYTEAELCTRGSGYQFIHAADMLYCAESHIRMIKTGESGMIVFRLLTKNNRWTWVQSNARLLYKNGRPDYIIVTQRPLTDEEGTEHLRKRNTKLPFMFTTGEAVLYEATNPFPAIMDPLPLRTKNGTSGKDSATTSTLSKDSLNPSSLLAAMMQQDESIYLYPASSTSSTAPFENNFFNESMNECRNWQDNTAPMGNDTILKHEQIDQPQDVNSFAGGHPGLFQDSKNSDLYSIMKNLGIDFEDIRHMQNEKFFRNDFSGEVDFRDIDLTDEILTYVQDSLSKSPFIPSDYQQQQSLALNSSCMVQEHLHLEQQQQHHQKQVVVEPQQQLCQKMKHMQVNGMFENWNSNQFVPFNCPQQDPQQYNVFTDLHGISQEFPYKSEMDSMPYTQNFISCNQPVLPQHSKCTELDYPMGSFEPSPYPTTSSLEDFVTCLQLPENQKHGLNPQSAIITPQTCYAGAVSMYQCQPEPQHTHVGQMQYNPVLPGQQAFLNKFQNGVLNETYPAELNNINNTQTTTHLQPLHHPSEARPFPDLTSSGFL
ASSAY_REMARKS: EROD assay (7-ethoxy-resorufin-O-deethylase; CYP1A1 activity) in human HepG2 cells
Assay type: cell-based
RUN_PARAMETERS: HepG2, human HepG2 cells, Plate 1
Under this convention, true denotes EC90 strictly below 200 nM and false denotes EC90 at or above 200 nM.

Asked: hey, is EC90 for CC[C@@H](O)c1csc(C(=O)c2c[nH]c3ccc(F)cc23)n1 lower than 200 nM or not?
Given back: false

Asked: hey, is EC90 for CC(C)(O)c1csc(C(=O)c2c[nH]c3ccccc23)n1 lower than 200 nM or not?
Given back: true

Asked: hey, is EC90 for O=C(c1nc([C@H](O)C(F)(F)F)cs1)c1c[nH]c2cc(F)ccc12 lower than 200 nM or not?
Given back: true

Asked: hey, is EC90 for CC[C@H](O)c1csc(C(=O)c2c[nH]c3ccc(F)cc23)n1 lower than 200 nM or not?
Given back: false

Asked: hey, is EC90 for CC[C@@H](N)c1csc(C(=O)c2c[nH]c3cc(F)ccc23)n1 lower than 200 nM or not?
Given back: true

Asked: hey, is EC90 for CCC(O)(CC)c1csc(C(=O)c2c[nH]c3cc(F)ccc23)n1 lower than 200 nM or not?
Given back: false

Asked: hey, is EC90 for CC[C@@H](O)c1nc(C(=O)c2c[nH]c3cc(F)ccc23)cs1 lower than 200 nM or not?
Given back: false

Asked: hey, is EC90 for CC[C@H](O)c1csc(C(=O)c2c[nH]c3cc(F)ccc23)n1 lower than 200 nM or not?
Given back: true

Asked: hey, is EC90 for O=C(c1nc([C@@H](O)C(F)(F)F)cs1)c1c[nH]c2cc(F)ccc12 lower than 200 nM or not?
Given back: true

Asked: hey, is EC90 for CC[C@H](N)c1csc(C(=O)c2c[nH]c3cc(F)ccc23)n1 lower than 200 nM or not?
Given back: true

Asked: hey, is EC90 for CC[C@H](O)c1nc(C(=O)c2c[nH]c3cc(F)ccc23)cs1 lower than 200 nM or not?
Given back: false
